Recorded measurements of TGI, one per entry
system: XF 498 CNS; test: NCI tumour cell line growth inhibition, 48 h

Would you kindly share the measured TGI for "Cn1cnc([N+](=O)[O-])c1Sc1nc2ncccc2[nH]1" ?
> 100 µM

Would you kindly share the measured TGI for O=NN(CCCl)C(=O)NC1CCC(C(=O)O)CC1 (stereo unspecified) ?
> 100 µM

Would you kindly share the measured TGI for C[C@]12CCc3nonc3C1CC[C@@H]1C2CC[C@]2(C)C(=O)/C(=N\O)CC12 (stereo partly specified) ?
> 100 µM

Would you kindly share the measured TGI for "O=[N+]([O-])c1cccc2nc3ccccc3c(NCCO)c12" ?
0.00437 µM

Would you kindly share the measured TGI for "CC[C@@]1(O)C(=O)OCc2c1cc1n(c2=O)Cc2cc3c([N+](=O)[O-])c(OC)ccc3nc2-1" ?
5.07 µM

----------
system: SK-MEL-5 melanoma; assay: NCI tumour cell line growth inhibition, 48 h
experimentalReadout: TGI

O=C1c2ccccc2C(=O)N1CCn1nc(-c2ccccc2)cc(-c2ccccc2)c1=O; > 100 µM
COc1ccc2c(c1)CC[C@@H]1[C@@H]2CC[C@]2(C)C(c3ccsc3)=C(/C=C/C(=O)c3ccccc3)C[C@@H]12; > 100 µM
CN(CC(=O)O)c1ncc2c(n1)-c1ccccc1OC2c1ccccc1 (stereo not given); > 100 µM

Item "O=[N+]([O-])c1cccc2nc3ccccc3c(NCCO)c12" with SK-MEL-5 melanoma - TGI?
0.00112 µM

Item "CN(C(=O)c1cccs1)C(=S)N1CCN(c2ccccn2)CC1" with SK-MEL-5 melanoma - TGI?
> 100 µM

Item COC(=O)C(C(=O)C(=O)Nc1ccc(Br)cc1)c1nc2ccc(Cl)cc2[nH]c1=O (stereo not given) with SK-MEL-5 melanoma - TGI?
> 100 µM

Item "COc1cccc(-n2ncc3c(N/N=C/c4ccc(F)cc4)ncnc32)c1" with SK-MEL-5 melanoma - TGI?
> 25 µM

----------
test system: SF-539 CNS; assay: NCI tumour cell line growth inhibition, 48 h
experimentalReadout: GI50

Oc1ccc(/C=C/c2ccc(O)cc2)cc1; 2.45 µM
CCOC(=O)c1c2c(n(Cc3ccc(Cl)cc3Cl)c1C)-c1nc(Cc3ccccc3)[nH]c1C(=O)C2=O; 2.14 µM
CN1CCN(Cc2ccc(NC(=O)c3nc4ccc5[nH]ncc5c4c4c3CCCC4)cc2C(F)(F)F)CC1; 0.831 µM
O=c1ccc(N=Nc2ccccc2)ccc1Cl; 5.9 µM
O=[N+]([O-])c1cc([N+](=O)[O-])c(N2CCCC2)cc1NN=C(c1ccc(O)cc1)c1ccc(O)cc1; 12.4 µM
C=C1C(=O)O[C@H]2[C@H]1CC/C(COC(=O)NCc1[nH]nc3ccccc13)=C\CC[C@@]1(C)O[C@@H]21; 1.82 µM
Nc1nc2cc(-c3ccc4ncc(C(=O)N5CCOCC5)n4c3)ccc2o1; 9.81 µM
CCCCCCCCCCCCCCCCNC(=O)OC(C)C; 5.15 µM

Turning now to a further molecule:
Would you kindly share the measured GI50 for CCC(/C=C(C)/C=C/C(=O)c1c(O)c(-c2ccc(O)cc2)c[nH]c1=O)CO (centres undefined) ?
3.22 µM

----------
Recorded measurements of GI50, one per entry
system: EKVX NSCLC; test: NCI tumour cell line growth inhibition, 48 h

CN1CCN(Cc2ccc(NC(=O)c3cnc(F)c(C#Cc4cnc(N)c5ncccc45)c3)cc2C(F)(F)F)CC1; 1.53 µM
N#Cc1c(-c2ccccc2)n([O-])c2ccccc2[n+]1=O; 28.2 µM
C=C(C)[C@@H]1C/C=C(\COC(=O)[C@H](OC(C)=O)C(NC(=O)c2ccccc2)c2ccccc2)CC[C@H]2O[C@]2(C)CC/C=C(\C)CC1 (stereo not given in full); 18.6 µM
CCN(CC)CCCN1C(=O)c2c(c(C)c3c(oc4ccc(O)cc43)c2C)C1=O; 1.69 µM
CCSc1ccc2c(c1)N(CCCN1CCN(C)CC1)c1ccccc1S2; 6.04 µM
COC(=O)[C@@H]1CCCN1C(=O)[C@@H]1CCCN1C(=O)[C@H](Cc1ccccc1)NC(=S)Nc1cc(C(F)(F)F)cc(C(F)(F)F)c1; 3.07 µM

Would you kindly share the measured GI50 for "COc1ccc(-c2cc3c(OC)c(OC)c(OC)cc3oc2=O)cc1" ?
8.32 µM

Would you kindly share the measured GI50 for "O=C1c2[nH]cc(CN3CCN(CCO)CC3)c2C(=O)c2c1c(O)c1ccccc1c2O" ?
8.14 µM

Would you kindly share the measured GI50 for "Cc1ccc(NS(=O)(=O)c2ccc(-c3cnc(C4CC4)o3)cc2)cc1C" ?
0.713 µM

Would you kindly share the measured GI50 for CCCCN(CCCC)CC(O)c1ccc(OCc2ccccc2)c2ccccc12 (stereo not given) ?
5.66 µM

Would you kindly share the measured GI50 for "C=CCOC1=CC(=O)c2ccccc2C1=O" ?
4.75 µM

Would you kindly share the measured GI50 for "Cc1nn(-c2ccccc2)c(-n2ccnc2)c1/C=N/Nc1nc(-c2ccc(Cl)c(Cl)c2)cs1" ?
5.7 µM

Would you kindly share the measured GI50 for "CCOC(=O)c1c2c(n(Cc3ccc(Cl)cc3Cl)c1C)-c1nc(Cc3ccccc3)[nH]c1C(=O)C2=O" ?
2.24 µM

Would you kindly share the measured GI50 for "COc1ccc(/C=N/Nc2nc(N)nc(N3CCCC3)c2C#N)cc1" ?
25.9 µM

Would you kindly share the measured GI50 for "CCN(CC)CCn1c(N)c(-c2nc3ccccc3n2C)c2nc(C#N)c(C#N)nc21" ?
7.1 µM

Would you kindly share the measured GI50 for "COc1ccc(CN2CCc3c(Sc4ccccc4)nc(N)nc3C2=O)c(OC)c1" ?
4.32 µM

Would you kindly share the measured GI50 for "COC(=O)c1cc2cc(-c3ccc(OC)cc3)cnc2[nH]1" ?
5.87 µM

Would you kindly share the measured GI50 for "CSc1nn2c(-c3ccc4ccccc4c3)ccnc2c1C#N" ?
3.04 µM

Would you kindly share the measured GI50 for "Cc1cc(I)cc(CN(C)CCN(C)C)c1O" ?
61.5 µM

Would you kindly share the measured GI50 for "COC(=O)c1c2c(c(C)[n+]([O-])c1C)C(=O)C(NCc1cccc(Cl)c1)=CC2=O" ?
1.51 µM
